Source of measurements: PubChem BioAssay (NCI)

For each of the compounds below, state its TGI.
System: EKVX NSCLC
Protocol: NCI tumour cell line growth inhibition, 48 h
Answers are plain numbers, in µM.

Nc1nc(SCC#CCCl)c2[nH]cnc2n1: 15.4
Cc1ccc(C)c(N2CCN(c3ccncc3N)CC2)c1: 84.8
O=C(C=P(c1ccccc1)(c1ccccc1)c1ccccc1)c1ccccc1-c1ccccc1C(=O)C=P(c1ccccc1)(c1ccccc1)c1ccccc1: 0.91

The recorded TGI for Clc1ccc(Cc2nc3cc(Cl)c(Cl)cc3n2CC2CCCN3CCCCC23)cc1 (configuration not stated) is 23

====

Tested on: MALME-3M melanoma
Protocol: NCI tumour cell line growth inhibition, 48 h
Reported metric: TGI

The examples below pair each entry with its known result.
C=CCN(C(C)=O)c1cc(OCc2ccccc2)c2c(c1)c(C)cn2S(=O)(=O)c1ccccc1: 34.2 µM
NP1(Oc2ccc(F)cc2)=NP(N)(Oc2ccc(F)cc2)=NP(Oc2ccc(F)cc2)(Oc2ccc(F)cc2)=N1 (stereo not given): 18.7 µM
C/C(=C\COP(=O)(O)OP(=O)(O)O)CC/C=C(\C)CNc1c(F)c(F)c(F)c(F)c1F: > 100 µM
COc1cc2c(cc1C)NC(=O)/C2=C/c1c(Cl)[nH]c2ccccc12: 15.3 µM

Provide each entry's TGI from the list below.
1. CC(=O)[CH-]C(=O)c1ccccc1.CC(=O)[CH-]C(=O)c1ccccc1.Cl.[O-]CCc1ccccn1.[O-]CCc1ccccn1.[Ti+4]
2. O=C1CC2(CCN(Cc3ccccc3)CC2)C(=O)N1N1CCCCC1
3. COc1ccc2c(Cl)cc(NC(=S)Nc3ccccc3)nc2c1
4. O=C1c2ccc3c4c(ccc(c24)C(=O)N1CCCCO)C(=O)N(CCCCO)C3=O

1. 44.1 µM
2. > 100 µM
3. 69.4 µM
4. 1.02 µM

I need TGI for every entry listed below, if you could help.
1. O=C(O)CCCCCNCc1cc2cc3c(cc2c2cc(OCc4ccccc4)ccc12)OCO3
2. CC/C(=C/c1ccc(OC)cc1)[N+](=O)[O-]
3. Cc1cccc(NC(=S)NNC(=O)c2cc(-c3ccccc3)nc3ccccc23)c1
4. C=C1C(=O)C23C(O)CC4C(C)(C)CCC(O)C4(C)C2CC(OC(C)=O)C1[C@H]3O (stereo not given in full)
5. COc1ccc(Cl)cc1NC(=O)O/N=C(\Cl)C(C)C

1: 3.57 µM; 2: 3.77 µM; 3: 83.8 µM; 4: 9.42 µM; 5: 5.28 µM

Would you mind giving TGI for every compound in the list below?
1. Clc1ccc(Cc2nc3cc(Cl)c(Cl)cc3n2CC2CCCN3CCCCC23)cc1 (stereo not given)
2. O=C(c1ccccc1)c1nn(-c2cccc(Cl)c2)c2nc3nc(-c4ccccc4)cc(=O)n3nc12
3. O=C1OCc2nc3c(c(-c4ccccc4C(F)(F)F)c21)C(=O)OC3
4. O=C1c2ccccc2-c2cn(Cc3ccccc3)c3cccc(c23)C1c1cccnc1 (stereo not given)
5. Nc1nc(SCC#CCCl)c2[nH]cnc2n1
6. CCOC(=O)C(=O)CC(=O)C(Br)C(Br)c1ccc(Cl)cc1 (stereo not given)
7. C=C(CN1CCN(c2cc(C(F)(F)F)cc(C(F)(F)F)c2)CC1)c1ccc(C(=O)Nc2ccccc2N)cc1
8. CC(C)=CC(=O)c1[nH]c2ccccc2c1CC(=O)NCCc1cnc[nH]1

20.9 µM
> 25 µM
> 100 µM
> 50 µM
24 µM
> 100 µM
47.9 µM
> 100 µM

Record TGI per entry; entries follow.
1. CCCCCCCC(=O)NC(C)(C)C(=O)NCC(=O)NC(CC(C)C)C(=O)NC(C)(C)C(=O)NCC(=O)NCC(=O)NC(CC(C)C)C(=O)NC(C)(C)C(=O)NCC(=O)NC(C(=O)NC(CO)CC(C)C)C(C)CC (stereo not given)
2. CCC(C)C(NC(=O)c1cccc2c(=O)c3ccccc3[nH]c12)C(=O)O (stereo not given)

1. 8.93 µM
2. > 100 µM

====

System: DU-145 prostate
Protocol: NCI tumour cell line growth inhibition, 48 h; in the data active = GI50 below about 0.43 µM; inactive = the rest
Your reply should match one of these outcome classes. 1 = active, 0 = inactive

Record excerpt, results attached:
COc1ccc([C@@H]2[C@@H](Cl)C(=O)N2c2cc(OC)c(OC)c(OC)c2)cc1C: 1
COc1ccc(/C(=C(\c2ccccc2)[N+](=O)[O-])c2ccc(OCCN3CCCC3)cc2)cc1: 0
CNC(=O)c1sc(-n2cnc3cc(OC)c(OC)cc32)cc1OCc1ccccc1C(F)(F)F: 0
Cc1ccc(C)c(N2CCN(c3ccncc3N)CC2)c1: 0
COc1ccccc1NC(=O)c1sc2ncn(CCOc3ccccc3)c(=O)c2c1C: 0
CC[C@H](C)[C@H](NC(=O)CN(C)C)C(=O)N(C)[C@H](C[C@@H](OC(C)=O)c1nc(C(=O)NC23C4C5C2C2C3C4C52C(=O)OC)cs1)C(C)C (some centres not stated): 1
COc1cccc(/C=C\C(=O)c2ccccc2)c1: 0
O=C(/C=C/c1ccco1)Nc1ncc(Cc2cc(Cl)ccc2Cl)s1: 1

Look up the recorded call for `COc1cc(C(=O)/C=C/c2c[nH]c3ccccc23)cc(OC)c1OC` in this test.
1

Recorded call for `COc1cc(OC)c(/C=C/S(=O)(=O)Cc2ccc(OC)c(N)n2)c(OC)c1` ?
1

What is the recorded call for this molecule in the test? `N#Cc1ccc2c(-c3ccnc(NC4CC4)n3)c(-c3ccc(F)cc3)nn2c1`
0

Assay result, entry `Cc1ccc2nc(CN(CCN(Cc3nc4ccc(C)cc4[nH]3)Cc3nc4ccc(C)cc4[nH]3)Cc3nc4ccc(C)cc4[nH]3)[nH]c2c1` — outcome?
0

====

Test system: MCF7 breast
Protocol: NCI tumour cell line growth inhibition, 48 h
Reported metric: TGI

Check out these entries, answers already filled in.
CC(=O)N(C(=O)CC(=O)N1N=C(C)C(N=Nc2cccc([N+](=O)[O-])c2)C1=O)c1ccc(Cl)cc1 (stereo not given): > 10 µM
C=C(CN1CCN(c2cc(C(F)(F)F)cc(C(F)(F)F)c2)CC1)c1ccc(C(=O)Nc2ccccc2N)cc1: 21.8 µM
Nc1nc(N)c(CCCCc2ccc([N+](=O)[O-])cc2)c(N)n1: > 100 µM
NC1CC(=O)c2c(I)sc(I)c21 (stereo not given): > 67.7 µM

We next turn to a different molecule, shown below.
Entry COC(=O)C(=O)C(C(=O)C(=O)Nc1cc(C)ccc1C)c1nc2ccccc2[nH]c1=O (stereo not given) ; TGI = > 100 µM

====

Tested on: U251 CNS
Protocol: NCI tumour cell line growth inhibition, 48 h; in the data active means GI50 below about 0.43 µM; inactive means the rest
Answer with one of the outcomes active, inactive

Name the outcome recorded for `Cc1ccc(C)c(N2CCN(c3ccncc3N)CC2)c1` in the assay.
inactive

Give the logged outcome of this assay for the following compound: CC[C@H](C)[C@H](NC(=O)CN(C)C)C(=O)N(C)[C@H](C[C@@H](OC(C)=O)c1nc(C(=O)NC23C4C5C2C2C3C4C52C(=O)OC)cs1)C(C)C (stereo not given in full)
inactive

Please indicate how the test categorized `CCc1ccc([OH2+])c(C(=O)[O-])c1.CCc1ccc([OH2+])c(C(=O)[O-])c1.CCc1ccc([OH2+])c(C(=O)[O-])c1.CCc1ccc([OH2+])c(C(=O)[O-])c1.[Cu+2].[Cu+2]` .
inactive

Give the logged outcome of this assay for the following compound: `O=C(NCCN1CCOCC1)c1cc2c(Oc3ccc(NC(=O)C4(C(=O)Nc5ccc(F)cc5)CC4)cc3)ccnc2[nH]1`
inactive

Outcome? COc1cc(/C=N/NC(=O)c2cnn3c2NC(c2ccccc2)C3)ccc1OCc1ccccc1 (stereo not given)
inactive

Recorded test outcome, item `O=C(O)CCCCCNCc1cc2cc3c(cc2c2cc(OCc4ccccc4)ccc12)OCO3`
inactive

Dear all, I need the recorded test outcome for `Oc1ccccc1/C=N\NC(=S)Nc1ccc(F)cc1` , thank you.
inactive

Outcome logged for `O=C(c1ccccc1)c1nn(-c2cccc(Cl)c2)c2nc3nc(-c4ccccc4)cc(=O)n3nc12` in this assay:
inactive

Entry `COc1ccc(/C=C\c2cc(OC)c(OC)c(OC)c2)cc1NC(=O)/C=C/c1cc(OC)c(OC)c(OC)c1` : call = ?
inactive

====

System: NCI-H23 lung
Protocol: NCI tumour cell line growth inhibition, 48 h
Reported metric: TGI

The following molecules have reported results that may help.
CCOC(=O)c1c(NS(=O)(=O)c2ccccc2)sc2c1CCCC2: > 100 µM
N#Cc1cnn(C(=O)c2nn(-c3ccc(Cl)cc3)cc2O)c1N: 15.1 µM
CC(=O)OC1COC(N2C(=O)C(=O)c3ccccc32)C(OC(C)=O)C1OC(C)=O (stereo not given): > 100 µM
COC(=O)c1sc2c(c1C(=O)OC)C(=Nc1ccc(OC)cc1)SC2=Nc1ccc(OC)cc1: 3.12 µM

Now examine the next entry.
Item N#CC1=C(N)OC2=C(CCCc3ccc([N+](=O)[O-])cc32)C1c1ccc(Cl)cc1 (stereo not given) was tested on NCI-H23 lung; the reported TGI is 47.7 µM
